Values were extracted from ChEMBL document CHEMBL1152978.

Molecular target: Muscarinic acetylcholine receptor M1 (Homo sapiens, UniProt P11229)
Experiment: Displacement of [3H]NMS from human muscarinic M1 receptor expressed in CHOK1 cells by microplate scintillation counting
pIC50 by entry:
# log scale: pIC50 equals minus log10 of the concentration in mol/L

Take a look at these entries with their results.
O=C(O[C@H]1C[N+]2(CCc3ccccc3)CCC1CC2)C1c2ccccc2Oc2ccccc21.[Br-] = 9.36
O=C(O[C@H]1C[N+]2(CCCOc3ccccc3)CCC1CC2)[C@@](O)(c1cccs1)C1CCCC1.[Br-] = 9.09
O=C(O[C@H]1C[N+]2(CCc3ccccc3)CCC1CC2)C1(O)c2ccccc2-c2ccccc21.[Br-] = 8.95
O=C(O[C@H]1C[N+]2(CCCOc3ccccc3)CCC1CC2)[C@](O)(c1ccccc1)c1cccs1.[Br-] = 9.42
CC1(C(=O)O[C@H]2C[N+]3(CCCOc4ccccc4)CCC2CC3)c2ccccc2-c2ccccc21.[Br-] = 8.90
O=C(O[C@H]1C[N+]2(CCCOc3ccccc3)CCC1CC2)C(O)(c1cccs1)c1cccs1.[Br-] [ACLIDINIUM BROMIDE] = 9.85
O=C(O[C@H]1C[N+]2(CCCOc3ccccc3)CCC1CC2)C1(O)c2ccccc2-c2ccccc21.[Br-] = 9.20

Assay Muscarinic acetylcholine receptor M1 (Homo sapiens, UniProt P11229), sample O=C(O[C@H]1C[N+]2(CCCOc3ccccc3)CCC1CC2)C1(O)c2ccccc2Oc2ccccc21.[Br-] , pIC50 read: 9.64

###

Target: Muscarinic acetylcholine receptor M3 (Homo sapiens)
Sequence (P20309 whole entry): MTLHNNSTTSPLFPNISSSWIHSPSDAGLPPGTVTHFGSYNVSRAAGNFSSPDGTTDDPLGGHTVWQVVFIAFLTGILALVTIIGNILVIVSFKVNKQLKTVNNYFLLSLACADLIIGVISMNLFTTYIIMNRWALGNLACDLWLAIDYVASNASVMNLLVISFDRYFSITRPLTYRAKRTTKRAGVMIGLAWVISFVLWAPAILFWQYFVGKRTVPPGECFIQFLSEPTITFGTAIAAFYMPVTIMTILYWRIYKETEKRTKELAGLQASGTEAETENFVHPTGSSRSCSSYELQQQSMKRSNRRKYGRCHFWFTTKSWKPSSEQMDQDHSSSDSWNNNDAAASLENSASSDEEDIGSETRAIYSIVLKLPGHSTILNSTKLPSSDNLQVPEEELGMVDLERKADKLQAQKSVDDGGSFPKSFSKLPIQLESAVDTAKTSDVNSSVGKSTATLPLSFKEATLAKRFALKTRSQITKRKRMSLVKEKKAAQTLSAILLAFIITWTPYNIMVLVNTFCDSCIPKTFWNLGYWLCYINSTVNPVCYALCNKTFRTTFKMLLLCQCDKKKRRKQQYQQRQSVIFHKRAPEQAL
MEASUREMENT_NAME: pKi
# log scale: pKi equals minus log10 of the concentration in mol/L

Assay Muscarinic acetylcholine receptor M3 (Homo sapiens), sample O=C(O[C@H]1C[N+]2(CCCOc3ccccc3)CCC1CC2)[C@](O)(c1cccs1)C1CCCC1.[Br-] , pKi read: 10.15

###

Target: Muscarinic acetylcholine receptor M1 (Homo sapiens)
Sequence (P11229 whole entry): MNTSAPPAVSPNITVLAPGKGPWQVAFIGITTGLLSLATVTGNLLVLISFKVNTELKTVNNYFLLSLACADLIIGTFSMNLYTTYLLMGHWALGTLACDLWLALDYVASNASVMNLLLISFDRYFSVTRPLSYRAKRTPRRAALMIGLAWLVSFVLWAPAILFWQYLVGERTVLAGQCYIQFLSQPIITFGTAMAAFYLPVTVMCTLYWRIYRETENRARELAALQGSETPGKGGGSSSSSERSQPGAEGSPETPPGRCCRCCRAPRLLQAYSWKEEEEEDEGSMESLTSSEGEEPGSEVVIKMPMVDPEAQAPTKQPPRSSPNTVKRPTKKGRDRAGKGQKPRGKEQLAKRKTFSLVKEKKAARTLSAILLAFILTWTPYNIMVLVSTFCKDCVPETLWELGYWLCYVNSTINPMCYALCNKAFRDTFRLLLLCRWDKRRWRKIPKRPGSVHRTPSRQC
MEASUREMENT_NAME: pKi
# log scale: pKi equals minus log10 of the concentration in mol/L

O=C(O[C@H]1C[N+]2(CCCOc3ccccc3)CCC1CC2)C(O)(c1cccs1)c1cccs1.[Br-] [ACLIDINIUM BROMIDE] = 10.10

The molecule listed as O=C(O[C@H]1C[N+]2(CCCOc3ccccc3)CCC1CC2)[C@](O)(c1cccs1)C1CCCC1.[Br-] shows pKi equal to 10.05
